# Test system: Saccharomyces cerevisiae PS128 hsf1 delta, HSF1(1-493) fusion
# assayRemarks: growth estimate (transactivation domain function in HSF1 fusion, heat-shock survival) (a.u. (slope of normalised read count over time)); higher = stronger growth at 37°C, i.e. more transactivation activity
# cond: library: design library
This section presents sequences with their documented growth estimate values.

# residueSequence, relationalOperator, growth estimate
data = [
    ("EDLASILWSDVY", "=", -0.161),
    ("GQNGEIAQLWDFN", "<", -0.25),
    ("DFDLDMLGDFDRDMLG", "=", 0.584),
    ("DKDLDMLGDFDLDMLG", "=", -0.127),
    ("EDDDEFSLWDPML", "=", 3.13),
    ("TMDDVYNYLADD", "=", 0.274),
    ("DLDESRDYIFETTE", "=", -0.153),
    ("DLDGSWDYIFETTE", "=", 0.41),
    ("VADDIWEELLSEDR", "=", 0.315),
    ("VADDGWEELLSEDL", "<", -0.259),
]

###

# System: Saccharomyces cerevisiae PS128 hsf1 delta, HSF1(1-493) fusion
# assayRemarks: growth estimate (transactivation domain function in HSF1 fusion, heat-shock survival) (a.u. (slope of normalised read count over time)); higher = stronger growth at 37°C, i.e. more transactivation activity
# cond: library: design library
This section presents sequences with their documented growth estimate values.

# residueSequence, relationalOperator, growth estimate
rows = [
    ("TMDDVYNYLFKD", "<", -0.25),
    ("EPNDLLDLDFILSN", "=", 0.229),
    ("LFDYDFPFGNDFA", "=", 0.577),
    ("EFNKLLDLDFILSN", "<", -0.25),
    ("QQNGEIAQAWDFN", "<", -0.25),
    ("EFNDLRDLDFILSN", "=", -0.248),
    ("PFDLDMLGDFDLDMLG", "=", 4.25),
    ("PFPDTQDDFLRWWRSEEAQ", "=", -0.0276),
    ("TMDDVYNYLPDD", "<", -0.25),
    ("QQNGAIAQLWDFN", "=", -0.114),
    ("EDDDEFSLWDSMR", "=", -0.239),
    ("MRSSHGFSVDTSALLDLFSP", "=", -0.241),
    ("QQNGEIAQLGDFN", "=", -0.218),
    ("KADDIWEELLSEDL", "=", 0.514),
    ("DFDLDMLPDFDLDMLG", "=", 0.485),
    ("DELSWIIELLGKDG", "=", -0.173),
    ("MLSSHGFSVDTSALLDLFSG", "=", -0.181),
    ("DLDESWDYIFEATE", "=", 2.47),
    ("EDDDEFSAWDSML", "=", -0.0271),
    ("LFDYDFLFGGDFA", "=", 5.98),
    ("MLSGHGFSVDTSALLDLFSP", "=", -0.0767),
    ("TMDDVPNYLFDD", "=", -0.232),
    ("PEAPGIELQELQELQALLQQ", "<", -0.25),
    ("MLSSHGFSVDTSALKDLFSP", "<", -0.25),
    ("PFPDTQDDFLKWWRSEAAQ", "=", -0.154),
    ("DELSWIIELLEKAG", "<", -0.25),
    ("QQKGEIAQLWDFN", "<", -0.25),
    ("MLSPHGFSVDTSALLDLFSP", "=", 0.158),
    ("EFNDLLGLDFILSN", "<", -0.25),
    ("VADDIWEELLSEDK", "=", -0.0473),
    ("PFPDTGDDFLKWWRSEEAQ", "=", -0.0916),
    ("QQNGEIAQRWDFN", "<", -0.25),
    ("VADDIWEELLREDL", "=", 10.8),
    ("PAPDTQDDFLKWWRSEEAQ", "=", 0.0134),
    ("LFDYAFLFGNDFA", "=", 2.15),
    ("PEFPGIEAQELQELQALLQQ", "=", -0.167),
    ("EFNDLLDLDKILSN", "=", -0.21),
    ("DLPESWDYIFETTE", "=", -0.108),
    ("DLDESWKYIFETTE", "=", -0.0397),
    ("DLDESWDGIFETTE", "=", 0.5),
    ("LPDYDFLFGNDFA", "=", 2.12),
    ("DLDESWDYIFGTTE", "=", 0.717),
]

###

# System: Saccharomyces cerevisiae PS128 hsf1 delta, HSF1(1-493) fusion
# assayRemarks: growth estimate (transactivation domain function in HSF1 fusion, heat-shock survival) (a.u. (slope of normalised read count over time)); higher = stronger growth at 37°C, i.e. more transactivation activity
# cond: library: design library

# residueSequence, testSystem, growth estimate
measured = [
    ("DELSRIIELLEKDG", "Saccharomyces cerevisiae PS128 hsf1 delta, HSF1(1-493) fusion", "< -0.25"),
    ("PEFPGIELQELQEKQALLQQ", "Saccharomyces cerevisiae PS128 hsf1 delta, HSF1(1-493) fusion", "< -0.25"),
    ("PEFPGIELQELQELQKLLQQ", "Saccharomyces cerevisiae PS128 hsf1 delta, HSF1(1-493) fusion", "< -0.25"),
]

###

# Tested on: Saccharomyces cerevisiae PS128 hsf1 delta, HSF1(1-493) fusion
# assayRemarks: growth estimate (transactivation domain function in HSF1 fusion, heat-shock survival) (a.u. (slope of normalised read count over time)); higher = stronger growth at 37°C, i.e. more transactivation activity
# cond: library: design library

# residueSequence, testSystem, growth estimate
records = [
    ("DLDESWDYIPETTE", "Saccharomyces cerevisiae PS128 hsf1 delta, HSF1(1-493) fusion", "< -0.25"),
    ("QGNGEIAQLWDFN", "Saccharomyces cerevisiae PS128 hsf1 delta, HSF1(1-493) fusion", "< -0.25"),
    ("PEFPGIELQELQELQALPQQ", "Saccharomyces cerevisiae PS128 hsf1 delta, HSF1(1-493) fusion", "< -0.25"),
    ("PEFPGRELQELQELQALLQQ", "Saccharomyces cerevisiae PS128 hsf1 delta, HSF1(1-493) fusion", "< -0.25"),
    ("DELSWIIEGLEKDG", "Saccharomyces cerevisiae PS128 hsf1 delta, HSF1(1-493) fusion", "< -0.25"),
    ("MLSSHGFSVDTSAPLDLFSP", "Saccharomyces cerevisiae PS128 hsf1 delta, HSF1(1-493) fusion", -0.15),
    ("LRDYDFLFGNDFA", "Saccharomyces cerevisiae PS128 hsf1 delta, HSF1(1-493) fusion", -0.135),
    ("EFADLLDLDFILSN", "Saccharomyces cerevisiae PS128 hsf1 delta, HSF1(1-493) fusion", 0.75),
    ("TMDDVGNYLFDD", "Saccharomyces cerevisiae PS128 hsf1 delta, HSF1(1-493) fusion", "< -0.25"),
    ("MLSSHGFSVDTSALLDLRSP", "Saccharomyces cerevisiae PS128 hsf1 delta, HSF1(1-493) fusion", "< -0.25"),
    ("TMDDVYNYLFRD", "Saccharomyces cerevisiae PS128 hsf1 delta, HSF1(1-493) fusion", -0.0803),
]

###

# Test system: Saccharomyces cerevisiae PS128 hsf1 delta, HSF1(1-493) fusion
# assayRemarks: growth estimate (transactivation domain function in HSF1 fusion, heat-shock survival) (a.u. (slope of normalised read count over time)); higher = stronger growth at 37°C, i.e. more transactivation activity
# cond: library: design library
This section presents sequences with their documented growth estimate values.

# residueSequence, relationalOperator, growth estimate
rows = [
    ("EDLYPILWSDVY", "<", -0.25),
    ("PEFPGIELQELQELQGLLQQ", "<", -0.25),
    ("PEFPGIELQELQELQAPLQQ", "<", -0.25),
    ("EFNDLLDLRFILSN", "<", -0.25),
    ("PFPDPQDDFLKWWRSEEAQ", "=", -0.0255),
    ("EFNDLLDKDFILSN", "=", -0.227),
    ("PFPDTQDDFLKWWRSERAQ", "<", -0.25),
    ("EDLKSILWSDVY", "<", -0.25),
    ("LFDYDFKFGNDFA", "=", -0.229),
    ("EFNDLLDLDAILSN", "=", 0.353),
    ("PEFRGIELQELQELQALLQQ", "=", -0.124),
    ("TMDDVYNYLKDD", "<", -0.25),
    ("EDGDEFSLWDSML", "=", 0.533),
    ("DELSWAIELLEKDG", "<", -0.25),
]
